Listed here: compounds with reported pKi for glucocorticoid receptor (Homo sapiens, UniProt P04150).
pKi: −log10 of the molar value.

Ask | Query (compound): `CS(=O)(=O)Nc1cccc(/C=C2/c3ccccc3CCc3cc(N)ccc32)c1` ; field requested: pKi
Reply | > 6.30

Ask | Query (compound): `Oc1cccc(C=C2c3ccccc3CCc3cc(Cl)ccc32)c1` ; field requested: pKi
Reply | > 6.30

Ask | Query (compound): `CCOC(=O)C(=C1c2ccccc2CCc2ccccc21)c1cccc(NS(C)(=O)=O)c1` ; field requested: pKi
Reply | > 6.30

Ask | Query (compound): CS(=O)(=O)Nc1cccc(CC2c3ccccc3CCc3c(F)cccc32)c1 (centres unmarked) ; field requested: pKi
Reply | > 6.30

Next:
Ask | Query (compound): `COc1ccc(C(=C2c3ccccc3CCc3ccccc32)c2cccc(NS(C)(=O)=O)c2)cc1` ; field requested: pKi
Reply | > 5.00

The values you see were collected from patent US20060063759A1.
